All values here come from patent US20110112308A1.

Experiment: Stability of mixtures with excipients
Type: physicochemical
Settings: Mixture 7: 50% Cetyl Alcohol + 49% HPCLH21 + 1% Magnesium Stearate; 50° C./75% r.h., 2 weeks
Protocol: All samples were prepared/diluted to a concentration of 0.2 mg/mL in methanol prior to analysis by HPLC. A freshly prepared sample of each salt was used as the reference standard for external standard calibration analysis.
property.measured: % DP (total degradation products) (% area)

Some solved cases for reference:
CS(=O)(=O)O.Cc1[nH]c2ccccc2c1CCNCc1ccc(/C=C/C(=O)NO)cc1 [Mesylate]: 0.6
CC(O)C(=O)O.Cc1[nH]c2ccccc2c1CCNCc1ccc(/C=C/C(=O)NO)cc1.O (racemic) [Monohydrate DL-lactate salt]: 0.5

[A] Cc1[nH]c2ccccc2c1CCNCc1ccc(/C=C/C(=O)NO)cc1.Cl [HCl]
[B] Cc1[nH]c2ccccc2c1CCNCc1ccc(/C=C/C(=O)NO)cc1.O=C(O)/C=C\C(=O)O [Maleate]
**Q:** Lower value of % DP (total degradation products) belongs to which: A or B ? Please reply using the label of the selected record.
**A:** B
(B: 0.3 % area, A: 0.5 % area)

====

experiment: Solid-state stability; assay type: physicochemical; settings: Bulk stability, 2 weeks, 50° C./20% water
property.measured: % DP (total degradation products) (% area)

Consider the reported % DP (total degradation products) for these molecules:
CC(O)C(=O)O.Cc1[nH]c2ccccc2c1CCNCc1ccc(/C=C/C(=O)NO)cc1.O (racemic) [Monohydrate DL-lactate salt]: 0.51
Cc1[nH]c2ccccc2c1CCNCc1ccc(/C=C/C(=O)NO)cc1.O=C(O)/C=C\C(=O)O [Maleate]: 0.71

[A] Cc1[nH]c2ccccc2c1CCNCc1ccc(/C=C/C(=O)NO)cc1.Cl [HCl]
[B] CS(=O)(=O)O.Cc1[nH]c2ccccc2c1CCNCc1ccc(/C=C/C(=O)NO)cc1 [Mesylate]
**Q:** Among A and B , which shows a numerically higher % DP (total degradation products) result? Returns: label corresponding to the selected item.
**A:** B
(B: 1.48 % area, A: 0.56 % area)

====

assay: Stability of mixtures with excipients; type: physicochemical; settings: Mixture 1: 50% PVP + 50% Crospovidone; 50° C./75% r.h., 2 weeks
property.measured: % DS (drug substance) (% area)

CC(O)C(=O)O.Cc1[nH]c2ccccc2c1CCNCc1ccc(/C=C/C(=O)NO)cc1.O (racemic) [Monohydrate DL-lactate salt]: 99.4
Cc1[nH]c2ccccc2c1CCNCc1ccc(/C=C/C(=O)NO)cc1.O=C(O)/C=C\C(=O)O [Maleate]: 99.5
CS(=O)(=O)O.Cc1[nH]c2ccccc2c1CCNCc1ccc(/C=C/C(=O)NO)cc1 [Mesylate]: 99.2
Cc1[nH]c2ccccc2c1CCNCc1ccc(/C=C/C(=O)NO)cc1 [Free base]: 98.8
Cc1[nH]c2ccccc2c1CCNCc1ccc(/C=C/C(=O)NO)cc1.Cl [HCl]: 99.4

====

Assay: Solution stability (HPLC)
Type: physicochemical
Details: 2% in 0.5% CMC, 1 day at RT
Method: All samples were prepared/diluted to a concentration of 0.2 mg/mL in methanol prior to analysis by HPLC. A freshly prepared sample of each salt was used as the reference standard for external standard calibration analysis.
property.measured: % DP (total degradation products) (% area)

Cc1[nH]c2ccccc2c1CCNCc1ccc(/C=C/C(=O)NO)cc1.O=C(O)/C=C\C(=O)O [Maleate]: 0.58
Cc1[nH]c2ccccc2c1CCNCc1ccc(/C=C/C(=O)NO)cc1.Cl [HCl]: 0.46

[a] CC(O)C(=O)O.Cc1[nH]c2ccccc2c1CCNCc1ccc(/C=C/C(=O)NO)cc1.O (racemic) [Monohydrate DL-lactate salt]
[b] CS(=O)(=O)O.Cc1[nH]c2ccccc2c1CCNCc1ccc(/C=C/C(=O)NO)cc1 [Mesylate]
**Q:** Thinking about recorded % DP (total degradation products) values, which is higher, a or b ? Kindly state the label of the option you pick.
**A:** b

====

assay: Stability of mixtures with excipients; assay type: physicochemical; conditions: Mixture 3: 5% PVP + 5% Crospovidone + 10% Starch 1500 + 80% MCC 102; 50° C./75% r.h., 2 weeks
property.measured: % DS (drug substance) (% area)

CC(O)C(=O)O.Cc1[nH]c2ccccc2c1CCNCc1ccc(/C=C/C(=O)NO)cc1.O (racemic) [Monohydrate DL-lactate salt]: 99.5
CS(=O)(=O)O.Cc1[nH]c2ccccc2c1CCNCc1ccc(/C=C/C(=O)NO)cc1 [Mesylate]: 99.3
Cc1[nH]c2ccccc2c1CCNCc1ccc(/C=C/C(=O)NO)cc1 [Free base]: 99.3
Cc1[nH]c2ccccc2c1CCNCc1ccc(/C=C/C(=O)NO)cc1.Cl [HCl]: 99.4
Cc1[nH]c2ccccc2c1CCNCc1ccc(/C=C/C(=O)NO)cc1.O=C(O)/C=C\C(=O)O [Maleate]: 99.7

====

experiment: Stability of mixtures with excipients; type: physicochemical; conditions: Mixture 5: 99% Mannitol + 1% BHT/BHA; 50° C./75% r.h., 2 weeks
property.measured: % DP (total degradation products) (% area)

CC(O)C(=O)O.Cc1[nH]c2ccccc2c1CCNCc1ccc(/C=C/C(=O)NO)cc1.O (racemic) [Monohydrate DL-lactate salt]: 0.5

[1] Cc1[nH]c2ccccc2c1CCNCc1ccc(/C=C/C(=O)NO)cc1.Cl [HCl]
[2] CS(=O)(=O)O.Cc1[nH]c2ccccc2c1CCNCc1ccc(/C=C/C(=O)NO)cc1 [Mesylate]
[3] Cc1[nH]c2ccccc2c1CCNCc1ccc(/C=C/C(=O)NO)cc1.O=C(O)/C=C\C(=O)O [Maleate]
**Q:** Thanks in advance: please rank these 3 entries by % DP (total degradation products), highest to lowest. Please list the labels according to the requested order.
**A:** 2, 1, 3

====

assay: Solution stability (HPLC); format: physicochemical; conditions: 2 mg/mL in water, 1 week at 50° C.
property.measured: % DP (total degradation products) (% area)

CS(=O)(=O)O.Cc1[nH]c2ccccc2c1CCNCc1ccc(/C=C/C(=O)NO)cc1 [Mesylate]: 1.16
CC(O)C(=O)O.Cc1[nH]c2ccccc2c1CCNCc1ccc(/C=C/C(=O)NO)cc1.O (racemic) [Monohydrate DL-lactate salt]: 1.22
Cc1[nH]c2ccccc2c1CCNCc1ccc(/C=C/C(=O)NO)cc1.O=C(O)/C=C\C(=O)O [Maleate]: 0.80
Cc1[nH]c2ccccc2c1CCNCc1ccc(/C=C/C(=O)NO)cc1.Cl [HCl]: 0.89

====

Assay: Intrinsic dissolution rate, rotation disk method
Format: physicochemical
Method: Intrinsic Dissolution: […] […] Pellets of the other salts remained intact for at least several minutes enabling the determination of the intrinsic dissolution rate. Dissolution rate studies were performed using the rotation disk method ([…] Instrument). A single rotation speed of 200 r.p.m. was used to dissolve drug substance into a 500 mL vessel at 37° C. The solution was continuously pumped through a UV cell measurement and returned to the dissolution vessel.
property.measured: intrinsic dissolution (rate), in words

CC(O)C(=O)O.Cc1[nH]c2ccccc2c1CCNCc1ccc(/C=C/C(=O)NO)cc1 [DL-lactate salt]: good
Cc1[nH]c2ccccc2c1CCNCc1ccc(/C=C/C(=O)NO)cc1.O=C(O)/C=C\C(=O)O [Maleate]: good
Cc1[nH]c2ccccc2c1CCNCc1ccc(/C=C/C(=O)NO)cc1.Cl [HCl]: good
CS(=O)(=O)O.Cc1[nH]c2ccccc2c1CCNCc1ccc(/C=C/C(=O)NO)cc1 [Mesylate]: high

====

test: Intrinsic dissolution rate, rotation disk method; type: physicochemical; settings: Water, 37° C., 200 r.p.m.; free base pellet disintegrated, not true intrinsic rate
property.measured: Intrinsic Dissolution Rate (mg min^−1 cm^−2)

[P] CS(=O)(=O)O.Cc1[nH]c2ccccc2c1CCNCc1ccc(/C=C/C(=O)NO)cc1 [Mesylate]
[Q] Cc1[nH]c2ccccc2c1CCNCc1ccc(/C=C/C(=O)NO)cc1.Cl [HCl]
**Q:** Recorded Intrinsic Dissolution Rate values differ for P and Q ; which one is higher? Choose, then provide that item's label.
**A:** P

[I] Cc1[nH]c2ccccc2c1CCNCc1ccc(/C=C/C(=O)NO)cc1.O=C(O)/C=C\C(=O)O [Maleate]
[II] Cc1[nH]c2ccccc2c1CCNCc1ccc(/C=C/C(=O)NO)cc1 [Free base]
**Q:** Which has the smaller recorded Intrinsic Dissolution Rate, I or II ? Mark your selection by writing its label.
**A:** II
(II: 0.15 mg min^−1 cm^−2, I: 0.32 mg min^−1 cm^−2)

====

assay: pH of saturated solution or 1% suspension in water; type: physicochemical; conditions: room temperature
property.measured: pH of saturated solution

Cc1[nH]c2ccccc2c1CCNCc1ccc(/C=C/C(=O)NO)cc1.Cl [HCl]: 5.65

[P] Cc1[nH]c2ccccc2c1CCNCc1ccc(/C=C/C(=O)NO)cc1.O=C(O)/C=C\C(=O)O [Maleate]
[Q] Cc1[nH]c2ccccc2c1CCNCc1ccc(/C=C/C(=O)NO)cc1 [Free base]
**Q:** Between P and Q , whose recorded pH of saturated solution is greater? Answer = label.
**A:** Q
(Q: 8.7, P: 5.54)
